# MEASUREMENT TARGET: 5-HT2BR A225G^5.46 (Homo sapiens, UniProt P41595, A225G)
# Sequence (P41595 whole entry A225G): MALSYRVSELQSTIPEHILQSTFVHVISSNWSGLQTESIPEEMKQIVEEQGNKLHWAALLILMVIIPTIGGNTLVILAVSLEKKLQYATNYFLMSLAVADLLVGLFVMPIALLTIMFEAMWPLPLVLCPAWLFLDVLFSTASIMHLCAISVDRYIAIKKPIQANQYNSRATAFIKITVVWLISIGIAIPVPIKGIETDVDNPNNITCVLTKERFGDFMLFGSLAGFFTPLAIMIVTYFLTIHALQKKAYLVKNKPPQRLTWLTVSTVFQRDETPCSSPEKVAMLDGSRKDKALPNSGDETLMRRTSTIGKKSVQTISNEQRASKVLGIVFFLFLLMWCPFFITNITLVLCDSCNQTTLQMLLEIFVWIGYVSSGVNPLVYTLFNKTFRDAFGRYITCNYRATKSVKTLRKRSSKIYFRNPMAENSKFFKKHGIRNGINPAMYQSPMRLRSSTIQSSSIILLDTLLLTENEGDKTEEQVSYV
# ASSAY EXPLANATION: Gq-mediated calcium flux FLIPR assay
# CONDITION PARAMETERS: Gq calcium flux EC50, A225G^5.46 mutant
REPORTED METRIC: EC50
Note: a bare number is incomplete; add the unit.

Prompt: State the recorded EC50 for this entry: CC[C@@H](CO)NC(=O)[C@@H]1C=C2c3cccc4[nH]cc(c34)C[C@H]2N(C)C1
Completion: 12 nM

====

# MEASUREMENT TARGET: UniProt P41595
# ASSAY EXPLANATION: Gq-mediated calcium flux FLIPR assay
# CONDITION PARAMETERS: 5-HT2BR wild-type
REPORTED METRIC: Gq calcium flux agonist activity

                                   molecule  measurement_target  observed_measurement
0  CC[C@@H](CO)NC(=O)[C@@H]1C=C2c3cccc4[nH]cc(c34)C[C@H]2N(C)C1      UniProt P41595   Gq partial agonists
1  CCN(CC)C(=O)[C@@H]1C=C2c3cccc4[nH]cc(c34)C[C@H]2N(C)C1 [LSD, lysergic acid diethylamide]      UniProt P41595   Gq partial agonists
2  CN1C[C@H](C(=O)N[C@]2(C)O[C@@]3(O)[C@@H]4CCCN4C(=O)[C@H](Cc4ccccc4)N3C2=O)C=C2c3cccc4[nH]cc(c34)C[C@H]21      UniProt P41595   Gq partial agonists
